- measured.on: EGFR (Δ19del/T790M/C797S) (Homo sapiens, UniProt P00533, C797S/T790M, form not given)
- Sequence (P00533 25-1210 T790M/C797S limits assumed, form open): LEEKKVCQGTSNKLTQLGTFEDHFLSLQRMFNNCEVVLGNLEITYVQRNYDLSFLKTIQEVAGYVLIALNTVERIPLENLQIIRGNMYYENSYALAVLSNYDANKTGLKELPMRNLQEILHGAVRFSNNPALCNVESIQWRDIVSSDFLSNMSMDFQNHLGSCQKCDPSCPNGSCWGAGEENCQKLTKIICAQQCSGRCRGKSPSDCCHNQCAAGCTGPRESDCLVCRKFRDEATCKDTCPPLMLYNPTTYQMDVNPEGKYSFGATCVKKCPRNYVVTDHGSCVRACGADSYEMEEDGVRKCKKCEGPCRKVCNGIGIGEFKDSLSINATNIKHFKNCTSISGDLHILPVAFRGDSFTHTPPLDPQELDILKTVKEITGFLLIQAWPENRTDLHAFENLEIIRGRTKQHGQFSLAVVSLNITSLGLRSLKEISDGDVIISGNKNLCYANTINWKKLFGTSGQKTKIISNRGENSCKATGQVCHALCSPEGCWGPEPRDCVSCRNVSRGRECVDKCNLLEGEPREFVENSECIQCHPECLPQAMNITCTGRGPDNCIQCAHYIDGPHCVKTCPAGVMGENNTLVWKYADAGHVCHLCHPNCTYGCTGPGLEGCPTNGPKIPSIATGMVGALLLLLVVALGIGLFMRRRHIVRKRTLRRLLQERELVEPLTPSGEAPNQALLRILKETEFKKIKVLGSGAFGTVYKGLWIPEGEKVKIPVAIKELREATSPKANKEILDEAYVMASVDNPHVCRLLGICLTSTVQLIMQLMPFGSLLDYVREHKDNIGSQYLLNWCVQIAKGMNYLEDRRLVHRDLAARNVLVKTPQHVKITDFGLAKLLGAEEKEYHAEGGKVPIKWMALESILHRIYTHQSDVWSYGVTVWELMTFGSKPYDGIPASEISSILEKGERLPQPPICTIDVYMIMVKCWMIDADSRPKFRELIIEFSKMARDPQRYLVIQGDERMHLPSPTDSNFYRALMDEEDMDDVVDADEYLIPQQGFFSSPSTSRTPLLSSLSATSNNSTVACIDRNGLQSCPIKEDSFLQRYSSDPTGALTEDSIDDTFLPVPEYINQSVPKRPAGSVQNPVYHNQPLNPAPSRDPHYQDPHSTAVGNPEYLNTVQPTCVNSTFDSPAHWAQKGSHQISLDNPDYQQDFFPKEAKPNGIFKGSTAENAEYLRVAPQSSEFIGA
- assay.summary: Enzyme activity experiment (1): EGFR (Δ19del/T790M/C797S) enzyme inhibition
- condition.notes: read-out: EGFR (Δ19del/T790M/C797S) IC50
pIC50: −log10 of the molar value.
measure: pIC50

{"columns": ["compound", "measure", "relation", "val"],
 "data": [
  ["COc1cc(N2CCC(N3CCN(C)CC3)CC2)ccc1Nc1ncc(Cl)c(Nc2ccc3ccccc3c2P(C)(C)=O)n1 [Compound 6]", "pIC50", "=", 8.60],
  ["COc1cc(N2CCC3(CC2)CN(C)C3)c(C)cc1Nc1ncc(C2CC2)c(Nc2ccc3ccccc3c2P(C)(C)=O)n1 [Compound 25]", "pIC50", "=", 8.75],
  ["COc1cc(N2CCC3(CC2)CN(C)C3)c(C)cc1Nc1ncc(OC(=O)N(C)C)c(Nc2ccc3ccccc3c2P(C)(C)=O)n1 [Compound 17]", "pIC50", "=", 6.07],
  ["COc1cc(N2CCC3(CC2)CN(CCN(C)C)C3)c(C)cc1Nc1ncc(Cl)c(Nc2ccc3ccccc3c2P(C)(C)=O)n1 [Compound 20]", "pIC50", ">", 10.29]
]}

###

IC50 by entry:
- Tested on: pEGFR Ba/F3 (EGFR Δ19del/T790M/C797S) cells
- assay.summary: Cell phosphorylation inhibition experiment, pEGFR Ba/F3 (EGFR Δ19del/T790M/C797S)
- Type: cell-based
- condition.notes: Ba/F3 EGFR; Ba/F3 cells, EGF stimulated; read-out: Effect on cellular EGFR phosphorylation Ba/F3(Δ19del/T790M/C797S) IC50

{"columns": ["smiles.representation", "measured.on", "IC50"],
 "data": [
  ["COc1cc(N2CCC3(CC2)CN(CCN(C)C)C3)c(C)cc1Nc1ncc(Cl)c(Nc2ccc3nccnc3c2P(C)(C)=O)n1", "pEGFR Ba/F3 (EGFR Δ19del/T790M/C797S) cells", "195 nM"],
  ["CCc1cc(Nc2ncc(Br)c(Nc3ccc4nccnc4c3P(C)(C)=O)n2)c(OC)cc1N1CCC(N2CCN(C)CC2)CC1", "pEGFR Ba/F3 (EGFR Δ19del/T790M/C797S) cells", "25 nM"],
  ["COc1cc(N2CCC3(CC2)CN(C)C3)c(C)cc1Nc1ncc(Br)c(Nc2ccc3ccccc3c2P(C)(C)=O)n1", "pEGFR Ba/F3 (EGFR Δ19del/T790M/C797S) cells", "34 nM"]
]}
